Tested on: Trypanosoma cruzi
test-details: Trypanosoma cruzi phosphomannomutase and mannose-1-phosphate guanylyltransferase assay
Type: functional
Set-up: scale not given: direction of the effect not stated beside the values
test-context: 10 µM
Documented Percent Effect across a set of compounds
// note: answer is a bare numeric in %

compound: COC(=O)CCC(=O)N1CCc2[nH]nc(-c3ccc4c(c3)OCO4)c2C1
unit: %
obs-value: 5.18
--
compound: CCN1C(=O)C(C)(C)c2cc(NC(=O)c3ccco3)ccc21
unit: %
obs-value: 1.48

[Q] Note down Percent Effect recorded for COC(=O)c1ccc(C2CC(=O)Oc3cc(C)[nH]c(=O)c32)cc1 (configuration not stated)
[A] 4.71

[Q] Note down Percent Effect recorded for Cc1ccc(-c2nc(CN3CCOC(c4ccccc4)C3)cs2)o1 (configuration not stated)
[A] 2.7

[Q] Note down Percent Effect recorded for CCn1cc(NC(=O)NCC(O)CN2CCCCC2)cn1 (configuration not stated)
[A] 1.27

[Q] Note down Percent Effect recorded for "CNc1oc(-c2cc(S(=O)(=O)N3CCCCCC3)c(C)o2)nc1C#N"
[A] 5.5

[Q] Note down Percent Effect recorded for "COc1cccc(C(=O)N2CCc3ncnc(C)c3CC2)c1"
[A] -5.16

[Q] Note down Percent Effect recorded for CCN(CC)C(=O)Cn1ccc2cc(NC(=O)C3CCCO3)ccc21 (configuration not stated)
[A] 6.39

* * *

study-system: Arginase-2, mitochondrial (Homo sapiens) (UniProt P78540)
Sequence (P78540 whole entry): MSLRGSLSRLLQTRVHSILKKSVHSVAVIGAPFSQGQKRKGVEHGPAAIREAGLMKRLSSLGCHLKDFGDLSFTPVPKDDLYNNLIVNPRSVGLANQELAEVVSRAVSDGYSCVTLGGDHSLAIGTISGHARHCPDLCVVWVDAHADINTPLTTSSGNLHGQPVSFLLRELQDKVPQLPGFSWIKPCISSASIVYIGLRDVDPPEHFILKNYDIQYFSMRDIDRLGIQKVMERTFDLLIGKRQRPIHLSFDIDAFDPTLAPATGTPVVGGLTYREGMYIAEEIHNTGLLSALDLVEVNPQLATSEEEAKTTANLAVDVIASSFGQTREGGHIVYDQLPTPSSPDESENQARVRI
test-details: in vitro enzyme assay to detect the production of urea directly proportional to the activity of Arginase II; note: in the data most compounds retested in dose-response had high values
Assay type: functional
Parameters: scale not given: direction of the effect not stated beside the values
test-context: 33.3 µM
measured-quantity: Percent Effect (%)
// note: answer is a bare numeric in %

Use the examples below as a reference point.
molecule: COc1ccc(CNC(C)c2ccc3[nH]c(=O)[nH]c3c2)cc1 (centres undefined)
unit: %
Percent Effect: -6.81
//
molecule: Cc1cc(C)n(CC2CCCN2C(=O)c2cnn(C)c2C2CC2)n1 (centres undefined)
unit: %
Percent Effect: -0.554
//
molecule: O=C(Nc1cnn(CCN2CCOCC2)c1)c1ccccn1
unit: %
Percent Effect: 0

[Q] Note down Percent Effect recorded for "COc1ccccc1C(=O)N(C)Cc1ncc(C)c(OC)c1C"
[A] 0.21

[Q] Note down Percent Effect recorded for CN(C)S(=O)(=O)N1CCC2(CCCN(Cc3ccc(F)cc3)C2=O)C1 (centres undefined)
[A] 2.4

[Q] Note down Percent Effect recorded for CCc1noc(C2CCCCN2C(=O)c2nnc3ccccc3n2)n1 (centres undefined)
[A] -7.57

[Q] Note down Percent Effect recorded for COCCN1CCOCC2(CCCN(Cc3ccc(C)o3)C2)C1 (centres undefined)
[A] -42.1

[Q] Note down Percent Effect recorded for Cc1cnn(CCC(=O)N2CCCC(c3cc(C(N)=O)[nH]n3)C2)c1 (centres undefined)
[A] -2.4

[Q] Note down Percent Effect recorded for CC(C1CC1)N(C(=O)NCCCn1nc2ccccn2c1=O)C1CC1 (centres undefined)
[A] 20.9

[Q] Note down Percent Effect recorded for "CC(C)Sc1nnc(CCNC(=O)OC(C)(C)C)o1"
[A] 0.176

[Q] Note down Percent Effect recorded for "Nc1cc2c(nn1)CCN(C(=O)CC1CCCC1)C2"
[A] -0.38

[Q] Note down Percent Effect recorded for Cc1nn(C)c(C)c1NC(=O)CN1CCCC1c1noc(C2CC2)n1 (centres undefined)
[A] 3.64

[Q] Note down Percent Effect recorded for "CNC(=O)c1cc2c(nc1NC(C)C)CCN(C(=O)NC(C)C)CC2"
[A] -0.744

[Q] Note down Percent Effect recorded for Cc1c(C(=O)NC(CN2CCCC2=O)c2ccccc2)cnn1C (centres undefined)
[A] 6.9

[Q] Note down Percent Effect recorded for Cc1nc(CN2CCOC(c3nc(C(C)C)n[nH]3)C2)oc1C (centres undefined)
[A] 2.66

[Q] Note down Percent Effect recorded for Cc1nc(C(=O)N2CCCC(n3cncn3)C2)cs1 (centres undefined)
[A] 2.8

[Q] Note down Percent Effect recorded for "CCS(=O)(=O)N1CCC(c2nnc(CN3CCOCC3)n2C)CC1"
[A] 5.73

[Q] Note down Percent Effect recorded for "CC(=O)c1cccc(NC(=O)Cn2cc(I)cn2)c1"
[A] 11.8

[Q] Note down Percent Effect recorded for Cc1nn(C)c(N(C)C)c1CNCC(O)c1ccccc1 (centres undefined)
[A] 3.64

[Q] Note down Percent Effect recorded for Cn1ncc2c(=O)[nH]c(CN3CCCC3Cc3ccccc3)nc21 (centres undefined)
[A] -3.24

[Q] Note down Percent Effect recorded for "CS(=O)(=O)CCSc1cccc(C#N)c1"
[A] -0.442

[Q] Note down Percent Effect recorded for "CN(C)c1cc(CNC(=O)c2cn(-c3ccc(F)cc3)nn2)ccn1"
[A] 3.58

[Q] Note down Percent Effect recorded for CC(C)N1CCCC(CCCc2ccccn2)(C(=O)O)C1 (centres undefined)
[A] -0.696

[Q] Note down Percent Effect recorded for "Cc1cccc(-n2cc(C(=O)N3CCn4c(C)nnc4C3)nn2)c1"
[A] -8.38
